From: patent US20240043420A1

measured on: ABL1 (Homo sapiens)
Construct: purchased Carna Biosciences
Sequence (P00519 whole entry): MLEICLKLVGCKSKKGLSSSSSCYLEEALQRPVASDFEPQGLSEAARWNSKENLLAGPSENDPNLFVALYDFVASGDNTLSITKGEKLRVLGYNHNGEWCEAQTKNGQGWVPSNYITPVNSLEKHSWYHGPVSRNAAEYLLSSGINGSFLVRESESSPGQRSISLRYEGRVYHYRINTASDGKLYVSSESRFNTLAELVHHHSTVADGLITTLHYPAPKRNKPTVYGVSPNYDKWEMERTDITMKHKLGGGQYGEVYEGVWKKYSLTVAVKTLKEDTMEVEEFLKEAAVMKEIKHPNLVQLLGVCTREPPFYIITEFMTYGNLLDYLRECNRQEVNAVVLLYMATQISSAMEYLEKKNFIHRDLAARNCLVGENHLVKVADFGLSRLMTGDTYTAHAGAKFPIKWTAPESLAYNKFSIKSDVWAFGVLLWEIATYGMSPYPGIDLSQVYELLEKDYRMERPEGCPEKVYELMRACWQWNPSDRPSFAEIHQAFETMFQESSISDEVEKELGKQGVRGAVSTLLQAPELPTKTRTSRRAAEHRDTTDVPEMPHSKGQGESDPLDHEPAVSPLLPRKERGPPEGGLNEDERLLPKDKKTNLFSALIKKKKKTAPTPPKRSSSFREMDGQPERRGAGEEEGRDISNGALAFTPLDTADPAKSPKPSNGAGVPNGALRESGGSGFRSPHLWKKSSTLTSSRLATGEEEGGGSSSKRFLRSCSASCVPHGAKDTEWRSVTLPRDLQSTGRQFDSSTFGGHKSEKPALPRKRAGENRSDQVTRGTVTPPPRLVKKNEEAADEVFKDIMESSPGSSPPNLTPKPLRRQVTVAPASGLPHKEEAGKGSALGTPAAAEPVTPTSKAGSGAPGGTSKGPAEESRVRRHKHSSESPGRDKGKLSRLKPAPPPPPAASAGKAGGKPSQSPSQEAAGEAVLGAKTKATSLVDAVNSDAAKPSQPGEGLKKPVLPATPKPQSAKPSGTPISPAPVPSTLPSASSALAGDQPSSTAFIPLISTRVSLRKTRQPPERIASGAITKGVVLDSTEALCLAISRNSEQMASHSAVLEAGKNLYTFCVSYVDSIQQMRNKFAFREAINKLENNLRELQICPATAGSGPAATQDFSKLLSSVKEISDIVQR
assay method text: Luminescence-based ABL kinase assay (ADP-Glo, 300 μM ATP)
Type: biochemical
property: IC50 (nM)

Study these solved cases before continuing.
>>> value_measured("O=C(Nc1ccc2c(-c3ccc4[nH]ccc4c3)c[nH]c2n1)C1CC1")
33
>>> value_measured("COc1ncnc(OC)c1-c1c[nH]c2nc(NC(=O)[C@@H]3C[C@@H]3F)ccc12")
12.5
>>> value_measured("O=C(Nc1ccc2c(-c3cccc(O)c3)c[nH]c2n1)C1CC1")
96.6
>>> value_measured("Cc1nc2cc(-c3c[nH]c4nc(NC(=O)C5CC5)ccc34)ccc2[nH]1")
41.8
>>> value_measured("CCOc1ncccc1-c1c[nH]c2nc(NC(=O)[C@H]3C[C@H]3F)ccc12")
40.7

P. COc1ncccc1-c1c(C)[nH]c2nc(NC(=O)[C@@H]3C[C@@H]3F)ccc12
Q. CNc1ccc(-c2c[nH]c3nc(NC(=O)C4CC4)ccc23)c(OC)n1
Could you tell me which of these two has the smaller IC50 figure? First: P Second: Q To answer, give the label that identifies your chosen option.
Q
